System: U2OS
method.description: Incucyte cell viability with U2OS; note: unitless GR value; below 1 slowed growth and below 0 cell loss
Type: toxicity, cell-based
study.conditions: human, 6 h, 10 µM, compound concentration 10 uM, replicate number 1, timepoint 6 hours
Where a SMILES comes first, the peptide text is derived from it. [ ]: non-standard residue; d: D form.
measured.property: Growth Rate
Could you keep your reply to the number by itself?

Here is how some compounds turned out for Growth Rate.
CC(C)C[C@@H]1NC(=O)[C@@H](C(C)C)NC(=O)[C@@H]2CCCN2C(=O)[C@@H](CC(=O)O)NC(=O)[C@@H](Cc2c[nH]c3ccccc23)NC1=O [BQ-123] (cyclo(L[dW][dD]P[dV])) : 0.51
CN[C@@H](C)C(=O)N[C@H]1CCCC[C@H]2CC[C@@H](C(=O)N[C@@H](c3ccccc3)c3cn(CCCCc4ccc(CCCCn5cc([C@@H](NC(=O)[C@@H]6CC[C@@H]7CCCC[C@H](NC(=O)[C@H](C)NC)C(=O)N76)c6ccccc6)nn5)cc4)nn3)N2C1=O : 0.83
CC(C)n1cnc2c(Nc3cccc(Cl)c3)nc(N[C@H]3CCCC[C@@H]3N)nc21 : -0.04
CC(=O)O[C@H]1C(=O)[C@@]2(C)[C@H]([C@H](OC(=O)c3ccccc3)[C@]3(O)C[C@H](OC(=O)[C@H](O)[C@@H](NC(=O)c4ccccc4)c4ccccc4)C(C)=C1C3(C)C)[C@]1(OC(C)=O)CO[C@@H]1C[C@@H]2O [PACLITAXEL] : 0.37
CC(=O)NCCc1c(Cc2ccccc2)[nH]c2ccccc12 [LUZINDOLE] : 0.72

Exercise: Name the recorded Growth Rate for CC1(C)[C@H]2C[C@H](C/C=C\CCCC(=O)O)[C@@H](NC(=O)c3csc4ccc(O)cc34)[C@@H]1C2 .
Solution: 0.23

====

Test system: Fibroblast
method.description: Incucyte cell viability with human fibroblast; note: unitless GR value; below 1 slowed growth and below 0 cell loss
Format: toxicity, cell-based
study.conditions: 24 h, 10 µM, compound concentration 10 uM, replicate number 1, timepoint 24 hours
measured.property: Growth Rate
Could you keep your reply to the number by itself?

C(#Cc1cccc(CN2CCOCC2)c1)CCN1CCCCC1 : 0.28
CCCCCCCCc1ccc(CC[C@](N)(CO)COP(=O)(O)O)cc1 [FTY720-P] : 0.09
Cc1cc(Cn2nnc3c(-c4ccco4)nc(N)nc32)ccc1N [VIPADENANT] : 0.17

Exercise: Name the recorded Growth Rate for CCN1C(=CC(C)=O)Sc2ccc(OC)cc21 .
Solution: 0.7

Exercise: Repeat with CC(=O)O[C@H]1C(=O)[C@@]2(C)[C@H]([C@H](OC(=O)c3ccccc3)[C@]3(O)C[C@H](OC(=O)[C@H](O)[C@@H](NC(=O)c4ccccc4)c4ccccc4)C(C)=C1C3(C)C)[C@]1(OC(C)=O)CO[C@@H]1C[C@@H]2O [PACLITAXEL]
Solution: -0.4

Exercise: Repeat with N#Cc1c(N)nc(SCc2csc(-c3ccc(Cl)cc3)n2)c(C#N)c1-c1ccc(OCCO)cc1 [CAPADENOSON]
Solution: -0.34

Exercise: Repeat with CCOc1nc2cccc(C(=O)O)c2n1Cc1ccc(-c2ccccc2-c2nnn[nH]2)cc1
Solution: 0.89

Exercise: Repeat with C[C@H](N)COC(=O)[C@@H](CCCCN)NC(=O)Cc1c(-c2ccc3ccccc3c2)[nH]c2c1ccc1ccccc12
Solution: 0.64

====

Tested on: Fibroblast
method.description: Incucyte cell viability with human fibroblast; note: unitless GR value; below 1 slowed growth and below 0 cell loss
Type: toxicity, cell-based
study.conditions: 24 h, 10 µM, compound concentration 10 uM, replicate number 1, timepoint 24 hours
Give class 1 when the value for Growth Rate is at least 0.6. Give class 0 when it is less.

Previously resolved entries follow.
NCCc1cn(S(=O)(=O)c2c(Cl)nc3sccn23)c2ccccc12.O=C(O)C(=O)O : class 0
CC(=O)NCC(=O)N1[C@@H]2CC[C@H]1c1ccc(Nc3ncc(C(F)(F)F)c(NC4CCC4)n3)cc12 : class 0
CC(=O)Nc1cccc2c1c(Sc1ccc(Cl)cc1)c(C)n2CC(=O)O : class 1

Turning now to a further compound:
Exercise: Has OCCCNc1cc(-c2ccnc(Nc3cccc(Cl)c3)n2)ccn1 a recorded Growth Rate greater than or equal to 0.6?
Solution: class 0

====

Consider the following compounds and their measured Growth Rate readings.
System: HEK-293T
method.description: Incucyte cell viability with HEK293T; note: unitless GR value; below 1 slowed growth and below 0 cell loss
Type: toxicity, cell-based
study.conditions: human, 6 h, 10 µM, compound concentration 10 uM, replicate number 2, timepoint 6 hours
Could you keep your reply to the number by itself?

Here is how some compounds turned out for Growth Rate.
O=C(Nc1cc(C(F)(F)F)ccc1N1CCN(Cc2ccccn2)CC1)c1ccc(-c2ccncc2)o1 : 0.41
CC(C)(C)c1ccc(-c2coc3ccc(-c4cn[nH]c4)nc23)cc1 : 0.2
CC1(COc2ccc3c(c2)ncn3-c2ccc3cccc(N4CCC(N)CC4)c3n2)COC1 : -0.5
CC(C)Oc1ccc(Cc2ccc(NC3=NCCN3)cc2)cc1 : -0.01
CC(C)(C)c1ccc(S(=O)(=O)Nc2ccc(Cl)cc2C(=O)c2cc[n+]([O-])cc2)cc1 : 0.35

Exercise: Name the recorded Growth Rate for COc1cccc2c1c(NS(=O)(=O)c1ccc(Cl)s1)nn2Cc1cccc(CNC(=O)C(C)(C)O)c1 .
Solution: 0.95

====

Consider the following compounds and their measured Growth Rate readings.
Test system: HEK-293T
method.description: Incucyte cell viability with HEK293T; note: unitless GR value; below 1 slowed growth and below 0 cell loss
Format: toxicity, cell-based
study.conditions: human, 0 h, 10 µM, compound concentration 10 uM, replicate number 1, timepoint 0 hours
Could you keep your reply to the number by itself?

Here is how some compounds turned out for Growth Rate.
COC[C@@H](CC(C)C)NC1=N/C(=C\c2ccc3ncsc3c2)C(=O)N1C : -0.43
COc1cc2nc(N(C)CCCNC(=O)C3CCCO3)nc(N)c2cc1OC.Cl (stereo not drawn) [ALFUZOSIN HYDROCHLORIDE] : 0.21
COc1c(C)cc(NC(=O)c2nn(Cc3ccc(F)cc3)c3c2CN(C(=O)c2ccc[nH]2)C[C@]3(C)C(N)=O)cc1C : 0.79
CCNC(=O)c1cc2c(-c3cc(C(C)(C)O)ccc3Oc3c(C)cc(F)cc3C)cn(C)c(=O)c2[nH]1 : 0.5
O=C(O)c1nc2ccccc2c2[nH]c3c(I)cccc3c12 : 0.01
OC[C@H]1O[C@@H](n2cnc3c(NC4CCCC4)ncnc32)[C@H](O)[C@@H]1O : -0.12
COc1cc(Br)c(S(=O)(=O)Nc2ccc(C(F)(F)F)c(O[C@@H]3CCN(C)C3)c2)cc1OC : 0.96
CCc1cc2cc(NS(=O)(=O)c3ccc(C#N)cc3)ccc2n(CC)c1=O : 1

Exercise: Name the recorded Growth Rate for Nc1nccc(-c2ccn3c(N)nccc23)n1 .
Solution: -0.7

Exercise: Repeat with Cc1nnc2n1-c1sc(CCC(=O)N3CCOCC3)cc1C(c1ccccc1Cl)=NC2
Solution: 0.99

====

Test system: U2OS
method.description: Incucyte cell viability with U2OS; note: unitless GR value; below 1 slowed growth and below 0 cell loss
Type: toxicity, cell-based
study.conditions: human, 18 h, 10 µM, compound concentration 10 uM, replicate number 1, timepoint 18 hours
measured.property: Growth Rate
Could you keep your reply to the number by itself?

CCCCC/C=C\C/C=C\C/C=C\C/C=C\CCCC(=O)NCC(=O)O [ARACHIDONOYL GLYCINE] : 0.72

Exercise: // map C[C@@H](O[C@H]1OCCN(Cc2n[nH]c(=O)[nH]2)[C@H]1c1ccc(F)cc1)c1cc(C(F)(F)F)cc(C(F)(F)F)c1 [APREPITANT] to recorded Growth Rate (system: U2OS)
Solution: 0.9

Exercise: Repeat with N=C(N)NCCC[C@@H](NC(=O)C(c1ccccc1)c1ccccc1)C(=O)NCc1ccc(CNC(N)=O)cc1.O=C(O)C(F)(F)F.O=C(O)C(F)(F)F
Solution: 0.59

Exercise: Repeat with N[C@@]1(C(=O)O)CC[C@H]2[C@H](C(=O)O)[C@H]21
Solution: 0.7

====

Consider the following molecules and their measured Growth Rate readings.
System: Fibroblast
method.description: Incucyte cell viability with human fibroblast; note: unitless GR value; below 1 slowed growth and below 0 cell loss
Assay type: toxicity, cell-based
study.conditions: 0 h, 10 µM, compound concentration 10 uM, replicate number 1, timepoint 0 hours
Could you keep your reply to the number by itself?

CC[C@@]1(O)C(=O)OCc2c1cc1n(c2=O)Cc2cc3ccccc3nc2-1 : -0.02
CC(C)OC(=O)N1CCC(Oc2ncnc3c2cnn3-c2ccc(S(C)(=O)=O)cc2F)CC1 : 0.77
Cc1nccc(COC(=O)N2C[C@@H]3[C@@H](CNC(=O)c4ccc5[nH]nnc5c4)[C@@H]3C2)n1 : 0.35

Exercise: Name the recorded Growth Rate for CN(C)CCn1cc(S(=O)(=O)c2cccc(F)c2)c2cccnc21.Cl.Cl .
Solution: -0.06

====

Consider the following compounds and their measured Growth Rate readings.
Tested on: U2OS
method.description: Incucyte cell viability with U2OS; note: unitless GR value; below 1 slowed growth and below 0 cell loss
Assay type: toxicity, cell-based
study.conditions: human, 0 h, 10 µM, compound concentration 10 uM, replicate number 1, timepoint 0 hours

C[C@@](Cc1c[nH]c2ccccc12)(NC(=O)Nc1ccc([N+](=O)[O-])cc1)C(=O)NCC1(c2ccccn2)CCCCC1 : 0.29
CCOc1c2c(c(OCC)c3ncccc13)CN(c1ccc(CS(=O)(=O)NC(=O)Cc3ccccc3OC)cc1C)C2=O : -0.69

Exercise: Name the recorded Growth Rate for O=C(O)CCCCCC[C@H]1C(=O)NC(=O)N1CCC(O)C1CCCCC1 (some centres undefined) .
Solution: -0.44

Exercise: Repeat with CC(C)c1cc(Oc2c(Cl)cc(-n3nc(C#N)c(=O)[nH]c3=O)cc2Cl)n[nH]c1=O
Solution: 0.87
